# EXPERIMENTAL_TARGET: p70S6K (h) (Homo sapiens, UniProt P23443)
# Construct: purchased Upstate Ltd
# Sequence (P23443 whole entry): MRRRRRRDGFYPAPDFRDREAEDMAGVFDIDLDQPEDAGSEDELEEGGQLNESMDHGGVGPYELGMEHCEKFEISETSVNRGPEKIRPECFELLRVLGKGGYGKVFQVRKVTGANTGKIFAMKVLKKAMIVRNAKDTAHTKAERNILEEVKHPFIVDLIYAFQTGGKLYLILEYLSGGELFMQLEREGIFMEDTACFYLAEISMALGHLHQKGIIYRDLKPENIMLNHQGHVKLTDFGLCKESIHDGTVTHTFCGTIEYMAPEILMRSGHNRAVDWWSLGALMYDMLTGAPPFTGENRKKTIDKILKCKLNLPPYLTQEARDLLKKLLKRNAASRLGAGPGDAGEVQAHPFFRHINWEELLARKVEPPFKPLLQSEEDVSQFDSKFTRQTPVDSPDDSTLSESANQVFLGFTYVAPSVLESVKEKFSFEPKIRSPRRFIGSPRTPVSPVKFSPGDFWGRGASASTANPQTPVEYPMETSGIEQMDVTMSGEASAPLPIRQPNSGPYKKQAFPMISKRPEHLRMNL
# MEASUREMENT_DESCRIPTION: p70S6K (h) kinase assay (Upstate, 33P-ATP filtermat)
# Type: biochemical
# ASSAY_CONDITIONS: 100 uM of inhibitor; ATP 15 uM; read-out: P70S6 (h) % inhibition
OUTCOME_MEASURE: inhibition at 100 µM (%)

Here are 6 compounds together with their reported answers.
1. c1ccc2nc(-c3cc[nH]n3)nnc2c1 [Example 16, 3-(1H-Pyrazol-3-yl)-benzo[1,2,4]triazine]; 10
2. Nc1nnc2cc(-c3cn[nH]c3)ccc2n1; 97
3. [O-][n+]1nc(-c2cc[nH]n2)nc2ccccc21; 0
4. c1cncc(Nc2nnc3ccccc3n2)c1; 9
5. Nc1nnc2ccc(N3CCNCC3)cc2n1; 37
6. Nc1nnc2ccc(OCCc3ccc(Cl)c(Cl)c3)cc2n1; 52

a. c1ccc2nc(-c3cn[nH]c3)nnc2c1 [Example 13, 3-(1H-Pyrazol-4-yl)-benzo[1,2,4]triazine]
b. Nc1nnc2cc(-c3ccn[nH]3)ccc2n1
INPUT: Of the pair a and b , name the member with the lesser recorded inhibition at 100 µM. Kindly give the label for the entry you pick.
OUTPUT: b

* * *

# EXPERIMENTAL_TARGET: KDR (h) (Homo sapiens)
# Construct: purchased Upstate Ltd
# Sequence (P35968 20-1356): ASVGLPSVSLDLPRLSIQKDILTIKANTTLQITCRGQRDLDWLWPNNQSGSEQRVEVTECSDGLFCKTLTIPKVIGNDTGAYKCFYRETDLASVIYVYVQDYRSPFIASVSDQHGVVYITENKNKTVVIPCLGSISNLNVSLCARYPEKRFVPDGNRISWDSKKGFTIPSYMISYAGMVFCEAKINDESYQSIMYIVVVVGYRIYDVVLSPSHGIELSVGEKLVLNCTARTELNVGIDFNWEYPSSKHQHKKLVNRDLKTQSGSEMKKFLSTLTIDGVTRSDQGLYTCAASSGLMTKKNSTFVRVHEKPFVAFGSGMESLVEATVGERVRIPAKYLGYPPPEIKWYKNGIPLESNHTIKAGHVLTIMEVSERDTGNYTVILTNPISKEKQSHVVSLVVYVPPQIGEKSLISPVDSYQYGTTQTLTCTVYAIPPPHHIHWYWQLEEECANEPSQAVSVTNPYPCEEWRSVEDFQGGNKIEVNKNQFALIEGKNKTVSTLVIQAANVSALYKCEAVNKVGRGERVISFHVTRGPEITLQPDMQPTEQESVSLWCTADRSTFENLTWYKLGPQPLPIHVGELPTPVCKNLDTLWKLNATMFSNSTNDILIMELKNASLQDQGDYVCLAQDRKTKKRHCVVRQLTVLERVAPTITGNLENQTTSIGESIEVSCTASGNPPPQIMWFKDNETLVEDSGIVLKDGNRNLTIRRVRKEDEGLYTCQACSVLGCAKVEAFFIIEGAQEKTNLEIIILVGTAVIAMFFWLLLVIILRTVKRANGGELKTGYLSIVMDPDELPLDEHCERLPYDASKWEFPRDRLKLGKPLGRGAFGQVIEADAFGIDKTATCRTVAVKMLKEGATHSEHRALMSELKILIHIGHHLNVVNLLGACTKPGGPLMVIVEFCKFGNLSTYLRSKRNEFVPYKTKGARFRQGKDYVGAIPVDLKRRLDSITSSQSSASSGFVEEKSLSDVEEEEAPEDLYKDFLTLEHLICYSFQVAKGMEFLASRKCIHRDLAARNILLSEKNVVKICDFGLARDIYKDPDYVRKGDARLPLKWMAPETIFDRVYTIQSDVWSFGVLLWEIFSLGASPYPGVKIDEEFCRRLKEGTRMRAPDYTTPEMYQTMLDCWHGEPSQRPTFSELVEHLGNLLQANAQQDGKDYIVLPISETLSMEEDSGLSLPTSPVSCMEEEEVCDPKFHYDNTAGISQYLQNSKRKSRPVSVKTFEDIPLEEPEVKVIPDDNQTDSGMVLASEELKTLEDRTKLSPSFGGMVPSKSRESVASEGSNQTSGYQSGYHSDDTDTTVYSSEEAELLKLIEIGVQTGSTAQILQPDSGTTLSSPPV
# MEASUREMENT_DESCRIPTION: KDR (h) kinase assay (Upstate, 33P-ATP filtermat)
# Format: biochemical
# ASSAY_CONDITIONS: 100 uM of inhibitor; ATP 90 uM
OUTCOME_MEASURE: inhibition at 100 µM (%)

1) c1ccc2nc(-c3cn[nH]c3)nnc2c1 [Example 13, 3-(1H-Pyrazol-4-yl)-benzo[1,2,4]triazine]; 80
2) Nc1nnc2cc(-c3ccn[nH]3)ccc2n1; 89
3) Nc1nnc2cc(-c3cn[nH]c3)ccc2n1; 96
4) Nc1nnc2ccc(N3CCNCC3)cc2n1; 98

P. [O-][n+]1nc(-c2cn[nH]c2)nc2ccccc21
Q. [O-][n+]1nc(-c2cc[nH]n2)nc2ccccc21
R. Nc1nnc2ccc(OCCc3ccc(Cl)c(Cl)c3)cc2n1
S. c1ccc2nc(-c3cc[nH]n3)nnc2c1 [Example 16, 3-(1H-Pyrazol-3-yl)-benzo[1,2,4]triazine]
INPUT: Order the records so the highest inhibition at 100 µM appears first and the lowest last. Give the labels in the order requested.
OUTPUT: P, S, R, Q

* * *

# EXPERIMENTAL_TARGET: Arg (h) (Homo sapiens, UniProt P42684)
# Construct: purchased Upstate Ltd
# Sequence (P42684 whole entry): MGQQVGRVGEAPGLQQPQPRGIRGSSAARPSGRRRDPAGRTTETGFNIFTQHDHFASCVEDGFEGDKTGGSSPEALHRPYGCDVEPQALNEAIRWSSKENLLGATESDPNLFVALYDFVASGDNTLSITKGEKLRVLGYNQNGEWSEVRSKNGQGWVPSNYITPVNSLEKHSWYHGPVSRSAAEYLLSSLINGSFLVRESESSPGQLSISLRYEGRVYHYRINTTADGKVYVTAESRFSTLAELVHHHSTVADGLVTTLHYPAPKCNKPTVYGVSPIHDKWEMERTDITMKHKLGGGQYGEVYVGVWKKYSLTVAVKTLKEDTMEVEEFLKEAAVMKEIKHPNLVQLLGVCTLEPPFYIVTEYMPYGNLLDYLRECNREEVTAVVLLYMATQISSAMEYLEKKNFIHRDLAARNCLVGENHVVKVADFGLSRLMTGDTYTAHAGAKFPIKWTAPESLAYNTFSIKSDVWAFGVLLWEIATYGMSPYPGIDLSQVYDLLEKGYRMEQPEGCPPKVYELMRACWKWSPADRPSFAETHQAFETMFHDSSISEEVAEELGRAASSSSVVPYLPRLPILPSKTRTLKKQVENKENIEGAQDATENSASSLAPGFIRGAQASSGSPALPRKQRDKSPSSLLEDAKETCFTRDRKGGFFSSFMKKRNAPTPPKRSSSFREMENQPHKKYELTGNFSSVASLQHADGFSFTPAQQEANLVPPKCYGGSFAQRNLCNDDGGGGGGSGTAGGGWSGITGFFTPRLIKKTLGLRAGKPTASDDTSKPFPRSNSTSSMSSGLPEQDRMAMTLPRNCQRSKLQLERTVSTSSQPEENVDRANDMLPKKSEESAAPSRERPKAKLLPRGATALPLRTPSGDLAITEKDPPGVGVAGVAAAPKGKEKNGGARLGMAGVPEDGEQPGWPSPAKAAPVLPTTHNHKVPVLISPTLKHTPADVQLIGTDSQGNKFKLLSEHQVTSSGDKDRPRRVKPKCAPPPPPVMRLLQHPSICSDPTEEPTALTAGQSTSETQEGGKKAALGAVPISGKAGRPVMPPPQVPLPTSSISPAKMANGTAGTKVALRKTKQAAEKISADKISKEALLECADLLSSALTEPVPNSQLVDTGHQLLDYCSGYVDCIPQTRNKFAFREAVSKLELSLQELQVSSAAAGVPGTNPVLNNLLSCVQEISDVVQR
# MEASUREMENT_DESCRIPTION: Arg (h) kinase assay (Upstate, 33P-ATP filtermat)
# Type: biochemical
# ASSAY_CONDITIONS: 100 uM of inhibitor; ATP 45 uM
OUTCOME_MEASURE: inhibition at 100 µM (%)

Here are 3 compounds together with their reported answers.
1) c1cncc(Nc2nnc3ccccc3n2)c1; 71
2) Clc1ccc2nnc(Nc3cccnc3)nc2c1; 84
3) c1ccc2nc(Nc3ccc(N4CCNCC4)nc3)nnc2c1; 95

1. Nc1nnc2cc(-c3cn[nH]c3)ccc2n1
2. Cc1cc(Nc2nnc3ccccc3n2)n[nH]1
INPUT: Larger number for inhibition at 100 µM: 1 , or 2 ? Kindly give the label for the entry you pick.
OUTPUT: 1
(1: 82%, 2: 40%)

* * *

# EXPERIMENTAL_TARGET: Aurora-A (h) (Homo sapiens)
# Construct: purchased Upstate Ltd
# MEASUREMENT_DESCRIPTION: Aurora-A (h) kinase assay (Upstate, 33P-ATP filtermat)
# Assay type: biochemical
# ASSAY_CONDITIONS: 100 uM of inhibitor; ATP 15 uM
OUTCOME_MEASURE: AuroraA (h) % inhibition (%)

Here are 4 molecules together with their reported answers.
1) [O-][n+]1nc(Nc2ccc(N3CCNCC3)nc2)nc2ccccc21; 52
2) [O-][n+]1nc(Nc2cccnc2)nc2cc(-c3ccccc3)ccc21; 92
3) [O-][n+]1nc(Nc2cccnc2)nc2cc(Cl)ccc21; 82
4) Nc1nc2ccc(-c3cn[nH]c3)cc2[n+]([O-])n1; 98

I. Nc1nc2ccc(-c3ccn[nH]3)cc2[n+]([O-])n1
II. Cc1cc(Nc2nc3ccccc3[n+]([O-])n2)n[nH]1
III. [O-][n+]1nc(Nc2ccc(N3CCNCC3)cc2)nc2ccccc21
INPUT: Ordering: ascending AuroraA (h) % inhibition. Give the labels in the order requested.
OUTPUT: III, II, I
(III: 24%, II: 40%, I: 90%)

* * *

# EXPERIMENTAL_TARGET: Abl (h) (Homo sapiens)
# Construct: purchased Upstate Ltd
# Sequence (P00519 whole entry): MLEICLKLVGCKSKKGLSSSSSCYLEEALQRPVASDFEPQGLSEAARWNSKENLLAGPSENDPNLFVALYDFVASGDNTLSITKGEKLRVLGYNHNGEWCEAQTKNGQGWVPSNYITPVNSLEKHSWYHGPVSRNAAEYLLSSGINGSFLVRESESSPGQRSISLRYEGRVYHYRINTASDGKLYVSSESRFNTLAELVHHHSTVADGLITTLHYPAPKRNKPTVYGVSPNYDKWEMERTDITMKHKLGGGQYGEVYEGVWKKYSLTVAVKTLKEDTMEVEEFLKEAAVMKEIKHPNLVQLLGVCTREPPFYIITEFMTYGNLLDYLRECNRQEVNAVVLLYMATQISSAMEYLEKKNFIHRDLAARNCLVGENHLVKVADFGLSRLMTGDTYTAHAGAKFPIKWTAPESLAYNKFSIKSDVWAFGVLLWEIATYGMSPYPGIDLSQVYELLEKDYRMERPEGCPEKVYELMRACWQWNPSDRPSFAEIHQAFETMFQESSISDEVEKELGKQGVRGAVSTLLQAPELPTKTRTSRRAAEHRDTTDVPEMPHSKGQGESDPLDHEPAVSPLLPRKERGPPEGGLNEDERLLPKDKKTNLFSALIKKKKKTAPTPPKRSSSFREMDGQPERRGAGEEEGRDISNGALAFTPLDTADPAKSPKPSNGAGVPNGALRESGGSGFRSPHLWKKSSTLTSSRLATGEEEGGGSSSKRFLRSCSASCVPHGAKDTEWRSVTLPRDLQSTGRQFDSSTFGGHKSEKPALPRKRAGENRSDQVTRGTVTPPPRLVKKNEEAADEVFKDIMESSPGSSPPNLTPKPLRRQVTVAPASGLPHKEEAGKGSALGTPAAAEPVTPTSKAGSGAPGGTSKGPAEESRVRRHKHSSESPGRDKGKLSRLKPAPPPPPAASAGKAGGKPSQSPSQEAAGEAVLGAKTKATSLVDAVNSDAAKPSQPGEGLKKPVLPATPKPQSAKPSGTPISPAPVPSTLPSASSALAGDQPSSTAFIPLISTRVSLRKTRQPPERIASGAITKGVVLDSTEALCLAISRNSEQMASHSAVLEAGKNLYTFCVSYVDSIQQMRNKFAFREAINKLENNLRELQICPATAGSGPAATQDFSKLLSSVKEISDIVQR
# MEASUREMENT_DESCRIPTION: Abl (h) kinase assay (Upstate, 33P-ATP filtermat)
# Format: biochemical
# ASSAY_CONDITIONS: 100 uM of inhibitor; ATP 45 uM
OUTCOME_MEASURE: inhibition at 100 µM (%)

1. c1ccc2nc(Nc3ccc(N4CCNCC4)cc3)nnc2c1 [Example 6]; 89
2. c1ccc2nc(Nc3ccc(N4CCNCC4)nc3)nnc2c1 [Example 19]; 89
3. c1cncc(Nc2nnc3ccccc3n2)c1 [Example 3]; 65
4. Nc1nnc2cc(-c3cn[nH]c3)ccc2n1 [Example 8]; 87
5. c1ccc(-c2ccc3nnc(Nc4cccnc4)nc3c2)cc1 [Example 23]; 80

P. Clc1ccc2nnc(Nc3cccnc3)nc2c1 [Example 21]
Q. Cc1cc(Nc2nnc3ccccc3n2)n[nH]1 [Example 11]
INPUT: Of the pair P and Q , name the member with the lesser recorded inhibition at 100 µM. Kindly give the label for the entry you pick.
OUTPUT: Q

* * *

# EXPERIMENTAL_TARGET: Aurora-A (h) (Homo sapiens, UniProt O14965)
# Construct: purchased Upstate Ltd
# Sequence (O14965 1-403): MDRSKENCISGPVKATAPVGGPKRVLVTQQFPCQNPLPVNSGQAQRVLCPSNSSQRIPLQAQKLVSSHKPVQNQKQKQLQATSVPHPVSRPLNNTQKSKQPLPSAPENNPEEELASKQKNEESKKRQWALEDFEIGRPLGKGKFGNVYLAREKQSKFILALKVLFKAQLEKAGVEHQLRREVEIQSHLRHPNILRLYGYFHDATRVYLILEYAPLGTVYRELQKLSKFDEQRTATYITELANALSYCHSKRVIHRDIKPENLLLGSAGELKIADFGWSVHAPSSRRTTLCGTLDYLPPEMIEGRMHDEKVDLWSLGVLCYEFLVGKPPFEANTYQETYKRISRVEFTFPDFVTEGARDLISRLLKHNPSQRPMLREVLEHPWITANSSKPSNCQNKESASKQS
# MEASUREMENT_DESCRIPTION: Aurora-A (h) kinase assay (Upstate, 33P-ATP filtermat)
# Format: biochemical
# ASSAY_CONDITIONS: 100 uM of inhibitor; ATP 15 uM; read-out: AuroraA (h) % inhibition
OUTCOME_MEASURE: inhibition at 100 µM (%)

Here are 5 molecules together with their reported answers.
1) c1cncc(Nc2nnc3ccccc3n2)c1 [Example 3]; 68
2) c1ccc2nc(Nc3ccc(N4CCNCC4)nc3)nnc2c1 [Example 19]; 79
3) c1ccc2nc(-c3cc[nH]n3)nnc2c1 [Example 16, 3-(1H-Pyrazol-3-yl)-benzo[1,2,4]triazine]; 41
4) c1ccc2nc(-c3cn[nH]c3)nnc2c1 [Example 13, 3-(1H-Pyrazol-4-yl)-benzo[1,2,4]triazine]; 90
5) Nc1nnc2cc(-c3cn[nH]c3)ccc2n1 [Example 8]; 100

a. Clc1ccc2nnc(Nc3cccnc3)nc2c1 [Example 21]
b. [O-][n+]1nc(-c2cc[nH]n2)nc2ccccc21 [Example 17]
INPUT: Larger number for inhibition at 100 µM: a , or b ? Kindly give the label for the entry you pick.
OUTPUT: a
(a: 58%, b: 39%)

The reported numbers originate from patent US20080234276A1.
